System: Hepatotoxicity
Assay: FDA HLAED, serum glutamic oxaloacetic transaminase (SGOT) increase
Conditions: human
assay metric: SGOT Increase - Index Value
No unit in the answer, please; the number alone is enough.

C[C@](N)(Cc1ccc(O)cc1)C(=O)O [METYROSINE]    0

Now look at this one.
Give SGOT Increase - Index Value (Hepatotoxicity) of the following compound: Clc1ccc2nsnc2c1NC1=NCCN1 [TIZANIDINE]
16.5

====

Tested on: Hepatotoxicity
Test: FDA HLAED, alkaline phosphatase increase
Details: human
assay metric: Alkaline Phosphatase Increase - Number of Reports

Use these answered entries as a reference point.
CCCCCCCCCCC(=O)O[C@H]1CC[C@H]2[C@@H]3CCc4cc(O)ccc4[C@H]3CC[C@]12C [ESTRADIOL UNDECYLATE]    >= 4
CCC(=O)O[C@@H](O[P@](=O)(CCCCc1ccccc1)CC(=O)N1C[C@H](C2CCCCC2)C[C@H]1C(=O)O)C(C)C    < 4
COc1ccc(C(=O)Nc2ccccc2CCC2CCCCN2C)cc1 (stereo unspecified) [ENCAINIDE]    >= 4
CCOC(=O)c1cncn1[C@H](C)c1ccccc1 [ETOMIDATE]    < 4
CC1(C)O[C@@H]2C[C@H]3[C@@H]4C[C@H](F)C5=CC(=O)C=C[C@]5(C)[C@H]4[C@@H](O)C[C@]3(C)[C@]2(C(=O)CO)O1 [FLUNISOLIDE]    < 4

Lab note: next compound to report on.
Can you look up the measured Alkaline Phosphatase Increase - Number of Reports of "C[C@H](CCC(=O)O)[C@H]1CC[C@H]2[C@@H]3[C@@H](O)C[C@@H]4C[C@H](O)CC[C@]4(C)[C@H]3CC[C@]12C" for me?
>= 4

====

System: Hepatotoxicity
Experiment: FDA HLAED, serum glutamic pyruvic transaminase (SGPT) increase
Conditions: human
assay metric: SGPT Increase - Index Value
Answer field: number only, no words.

Would you kindly share the measured SGPT Increase - Index Value for O=C(O)COCCN1CCN(C(c2ccccc2)c2ccc(Cl)cc2)CC1 (centres undefined) ?
1.3

Then this compound: COc1cc2c(cc1OC)[C@@H](Cc1cc(OC)c(OC)c(OC)c1)[N+](C)(CCCOC(=O)CC/C=C/CCC(=O)OCCC[N+]1(C)CCc3cc(OC)c(OC)cc3[C@H]1Cc1cc(OC)c(OC)c(OC)c1)CC2.[Cl-].[Cl-] (some centres undefined) [MIVACURIUM CHLORIDE]
0

# iterate: "CC(C)c1ccc2oc3nc(N)c(C(=O)O)cc3c(=O)c2c1"
0

Now the same for "CC(C)OC(=O)CCC/C=C\C[C@@H]1[C@@H](CC[C@@H](O)CCc2ccccc2)[C@H](O)C[C@@H]1O"
0

And "C[C@H]1C[C@H]2[C@@H]3CCC4=CC(=O)C=C[C@]4(C)[C@@]3(F)[C@@H](O)C[C@]2(C)[C@@]1(O)C(=O)CCl" ?
0

Further, for "CO[C@]12CC[C@@]3(C[C@@H]1[C@](C)(O)C(C)(C)C)[C@H]1Cc4ccc(O)c5c4[C@@]3(CCN1CC1CC1)[C@H]2O5" ?
0

Try "Cc1cc2c(s1)Nc1ccccc1N=C2N1CCN(C)CC1" next.
15.5

====

System: Hepatotoxicity
Test: FDA HLAED, gamma-glutamyl transferase (GGT) increase
Conditions: human
assay metric: GGT Increase - Activity Score

Field: example entries. Status: answers known.
Cc1cc(CC(=O)O)n(C)c1C(=O)c1ccc(Cl)cc1 [ZOMEPIRAC]    Inactive
N=C(N)NCC1COC2(CCCCC2)O1 (configuration not stated)    Inactive
COc1ccccc1OCCNCC(O)COc1cccc2[nH]c3ccccc3c12 (configuration not stated) [CARVEDILOL]    Inactive
C[C@]12CC[C@@H]3c4ccc(OC(=O)Cc5ccc(N(CCCl)CCCl)cc5)cc4CC[C@H]3[C@@H]1CC[C@@H]2OC(=O)Cc1ccc(N(CCCl)CCCl)cc1 [ESTRADIOL MUSTARD]    Inactive
CC(C)c1ccc2oc3nc(N)c(C(=O)O)cc3c(=O)c2c1 [AMLEXANOX]    Inactive
CCCCc1oc2ccccc2c1C(=O)c1cc(I)c(OCCN(CC)CC)c(I)c1 [AMIODARONE]    Inactive

Request: GGT Increase - Activity Score, test system Hepatotoxicity, entry Cc1c(OCC(F)(F)F)ccnc1C[S+]([O-])c1nc2ccccc2[nH]1 (configuration not stated) [LANSOPRAZOLE]
Inactive

Then C[C@]12CC[C@@H]3c4ccc(OC(=O)c5ccccc5)cc4CC[C@H]3[C@@H]1CC[C@@H]2O [ESTRADIOL BENZOATE] ?
Inactive

Query C#C[C@]1(O)CC[C@H]2[C@@H]3CCC4=CC(=O)CC[C@@H]4[C@H]3CC[C@@]21CC [LEVONORGESTREL] next
Active

Quick one: Oc1ncnc2[nH]ncc12 [ALLOPURINOL]
Active

Same for Cc1cn([C@H]2C[C@H](N=[N+]=[N-])[C@@H](CO)O2)c(=O)[nH]c1=O [ZIDOVUDINE]
Inactive

====

Tested on: Hepatotoxicity
Test: FDA HLAED, serum glutamic oxaloacetic transaminase (SGOT) increase
Details: human
assay metric: SGOT Increase - Activity Score

COc1ccc(CCN2CCC(Nc3nc4ccccc4n3Cc3ccc(F)cc3)CC2)cc1    Inactive
CCOC(=O)[C@H](CCc1ccccc1)N[C@H]1CCc2ccccc2N(CC(=O)O)C1=O    Inactive
CN1C(C(=O)Nc2ccccn2)=C(O)c2ccccc2S1(=O)=O    Inactive
CCC1(c2ccc(N)cc2)CCC(=O)NC1=O (stereo unspecified) [AMINOGLUTETHIMIDE]    Inactive
COc1ccc(CC2c3cc(OC)c(OC)cc3CC[N+]2(C)CCC(=O)OCCCCCOC(=O)CC[N+]2(C)CCc3cc(OC)c(OC)cc3C2Cc2ccc(OC)c(OC)c2)cc1OC (stereo unspecified)    Inactive

Name the recorded SGOT Increase - Activity Score for "NNCCc1ccccc1" .
Active

====

Test system: Hepatotoxicity
Test: FDA HLAED, lactate dehydrogenase (LDH) increase
Conditions: human
assay metric: LDH Increase - Number of Reports

Here's what some known entries look like.
CC1(C)C(C=C(Cl)Cl)C1C(=O)OCc1cccc(Oc2ccccc2)c1 (configuration not stated)    < 4
CC1(C)S[C@@H]2[C@H](NC(=O)[C@H](NC(=O)N3CCN(S(C)(=O)=O)C3=O)c3ccccc3)C(=O)N2[C@H]1C(=O)O    < 4
O=C(O)c1cc(/N=N/c2ccc(O)c(C(=O)O)c2)ccc1O    < 4
O=C(O)P(=O)(O)O    >= 4

Endpoint output: LDH Increase - Number of Reports of "Fc1ccccc1C1=NCC(=S)N(CC(F)(F)F)c2ccc(Cl)cc21" . Value?
< 4

Would you kindly repeat that for CN1C2CCCC1CC(NC(=O)c1nn(C)c3ccccc13)C2 (configuration not stated) ?
< 4

Similarly, "CC(C)(C)NC(=O)[C@@H]1CN(Cc2cccnc2)CCN1C[C@@H](O)C[C@@H](Cc1ccccc1)C(=O)N[C@H]1c2ccccc2C[C@H]1O.O" ?
>= 4

And OC(c1cc(C(F)(F)F)nc2c(C(F)(F)F)cccc12)C1CCCCN1 (configuration not stated) ?
< 4

Another compound to look at: "CCCCC[C@H](O)/C=C/[C@@H]1[C@H]2C/C(=C/CCCC(=O)O)O[C@H]2C[C@H]1O"
< 4

====

Catalogue of SGOT Increase - Index Value readings, one per entry.
Tested on: Hepatotoxicity
Assay: FDA HLAED, serum glutamic oxaloacetic transaminase (SGOT) increase
Conditions: human
Form field (numeric): enter value without unit.

Worked examples, 3 compounds total:
O=C(O)CCc1nc(-c2ccccc2)c(-c2ccccc2)o1    0.9
CCC1=C[C@@H]2CN(C1)Cc1c([nH]c3ccccc13)[C@@](C(=O)OC)(c1cc3c(cc1OC)N(C)[C@H]1[C@@](O)(C(=O)OC)[C@H](OC(C)=O)[C@]4(CC)C=CCN5CC[C@]31[C@@H]54)C2    0.9
COC1=CC(=O)C[C@@H](C)[C@]12Oc1c(Cl)c(OC)cc(OC)c1C2=O    5.5

Using the record for CC(C)COCC(CN(Cc1ccccc1)c1ccccc1)N1CCCC1 (stereo not given) , report its SGOT Increase - Index Value.
0

Then "Cn1c(=O)c2[nH]cnc2n(C)c1=O.O" ?
0

====

Tested on: Hepatotoxicity
Experiment: FDA HLAED, serum glutamic oxaloacetic transaminase (SGOT) increase
Conditions: human
assay metric: SGOT Increase - Number of Reports

A selection of reference data follows.
C[C@@H]1C[C@H]2[C@@H]3CCC4=CC(=O)C=C[C@]4(C)[C@@]3(Cl)[C@@H](O)C[C@]2(C)[C@@]1(O)C(=O)CCl [MOMETASONE]    < 4
CC(C)NCC(O)COc1ccc(CC(N)=O)cc1 (stereo unspecified) [ATENOLOL]    >= 4
FC(F)OC(F)C(F)(F)F (stereo unspecified)    >= 4
CO/N=C(\C(=O)N[C@@H]1C(=O)N2C(C(=O)O)=C(CSc3nc(=O)c(=O)[nH]n3C)CS[C@H]12)c1csc(N)n1 [CEFTRIAXONE]    >= 4
COCCCC/C(=N\OCCN)c1ccc(C(F)(F)F)cc1 [FLUVOXAMINE]    >= 4

Moving on to another molecule below.
What measured SGOT Increase - Number of Reports goes with COc1cccc(C2(O)CCCCC2CN(C)C)c1 (stereo unspecified) [TRAMADOL] ?
>= 4
